Where these numbers come from: patent US20240131007A1

- method_notes: NIAID Antiviral Program for Pandemics primary assay (CPE/Tox), EV-68
- condition_set: CC50 µM, primary assay; EV-68; Visual (CPE/Tox)
readout: CC50 (µM)
Quick reminder: number only, in µM, skip the unit.

Query block: Provide only the value of recorded CC50 for Cc1ccc2[nH]c(-c3ccc(NC(=O)c4cccs4)cc3)nc2c1
Result block: 24

###

- method_notes: Cytotoxicity assay (Cell Titer Glo)
- condition_set: African green monkey, CC50 (μM), Table 8; Vero cells
readout: CC50 at 3 days (µM)
Quick reminder: number only, in µM, skip the unit.

Query block: Provide only the value of recorded CC50 at 3 days for O=C(Nc1ccc2[nH]c(-c3ccco3)nc2c1)c1cccs1 [Compound 57]
Result block: 8.5
